target: recombinant human Cox-2 (r-hu Cox-2) (Homo sapiens, UniProt P35354); construct: made in house; host or cells: baculovirus/Sf9 insect cells (microsomes); test: Recombinant human PGHS-2 enzyme assay (RHUCX2); format: biochemical; settings: 0.01 μM; read-out: RHUCX2 % Inh. at Dose
Sequence (P35354 18-604): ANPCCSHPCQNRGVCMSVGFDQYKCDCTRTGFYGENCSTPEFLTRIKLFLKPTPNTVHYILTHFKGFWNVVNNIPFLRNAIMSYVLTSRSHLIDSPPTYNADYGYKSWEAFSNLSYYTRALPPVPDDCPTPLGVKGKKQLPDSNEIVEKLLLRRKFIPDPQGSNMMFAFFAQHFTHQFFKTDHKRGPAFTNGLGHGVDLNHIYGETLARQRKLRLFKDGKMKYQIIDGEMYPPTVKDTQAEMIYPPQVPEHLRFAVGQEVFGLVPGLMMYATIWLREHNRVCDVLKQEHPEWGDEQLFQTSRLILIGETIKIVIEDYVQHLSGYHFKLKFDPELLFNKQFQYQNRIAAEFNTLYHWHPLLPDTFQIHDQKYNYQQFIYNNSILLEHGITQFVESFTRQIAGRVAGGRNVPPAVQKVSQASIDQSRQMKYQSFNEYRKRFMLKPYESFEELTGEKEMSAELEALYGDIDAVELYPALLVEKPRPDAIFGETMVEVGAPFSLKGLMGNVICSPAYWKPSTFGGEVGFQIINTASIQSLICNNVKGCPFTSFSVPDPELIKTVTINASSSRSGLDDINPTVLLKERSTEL
Some compounds, each annotated with its measured inhibition at 0.01 µM.
Measured Parameter: inhibition at 0.01 µM (%)

structure_string=NS(=O)(=O)c1ccc(-c2cnn(CC(F)(F)F)c(=O)c2-c2ccc(Cl)cc2)cc1 observed_value=30
structure_string=CC(C)COc1c(-c2ccc(S(N)(=O)=O)cc2)cnn(-c2ccc(F)cc2)c1=O observed_value=39
structure_string=NS(=O)(=O)c1ccc(-c2cnn(-c3ccc(F)c(Cl)c3)c(=O)c2-c2ccc(F)cc2)cc1 observed_value=48
structure_string=CC(C)(C)COc1c(-c2ccc(S(N)(=O)=O)cc2)cnn(-c2ccc(F)c(F)c2)c1=O observed_value=18
structure_string=CS(=O)(=O)c1ccc(-c2cnn(CC3CC3)c(=O)c2-c2ccc(F)cc2)cc1 observed_value=44

---

molecular target: recombinant human Cox-1 (r-hu Cox1) (Homo sapiens, UniProt P23219); construct: made in house; host or cells: baculovirus/Sf9 insect cells (microsomes); test: Recombinant human PGHS-1 enzyme assay (RHUCX1); format: biochemical; conditions: 100 μM; read-out: RHUCX1 % Inh. at Dose
Sequence (P23219 24-599): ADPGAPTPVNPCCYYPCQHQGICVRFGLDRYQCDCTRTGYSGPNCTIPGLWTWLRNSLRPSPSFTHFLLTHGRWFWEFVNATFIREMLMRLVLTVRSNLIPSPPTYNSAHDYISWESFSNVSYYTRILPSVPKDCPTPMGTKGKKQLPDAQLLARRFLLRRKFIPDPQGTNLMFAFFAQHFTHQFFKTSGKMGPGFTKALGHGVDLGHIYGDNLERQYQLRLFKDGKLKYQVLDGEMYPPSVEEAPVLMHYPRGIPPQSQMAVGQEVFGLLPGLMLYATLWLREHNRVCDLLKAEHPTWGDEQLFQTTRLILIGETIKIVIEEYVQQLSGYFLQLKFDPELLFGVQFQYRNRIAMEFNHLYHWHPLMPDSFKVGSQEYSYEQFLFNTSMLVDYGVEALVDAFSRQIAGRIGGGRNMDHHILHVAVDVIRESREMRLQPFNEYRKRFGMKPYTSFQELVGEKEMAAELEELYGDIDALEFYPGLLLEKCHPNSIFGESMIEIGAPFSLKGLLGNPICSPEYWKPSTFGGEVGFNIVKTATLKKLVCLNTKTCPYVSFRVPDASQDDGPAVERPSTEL
Some compounds, each annotated with its measured inhibition at 100 µM.
Measured Parameter: inhibition at 100 µM

compound="NS(=O)(=O)c1ccc(-c2cnn(-c3ccc(F)cc3)c(=O)c2-c2ccc(F)cc2)cc1F [Example 72]" measurement_target="recombinant human Cox-1 (r-hu Cox1) (Homo sapiens, UniProt P23219)" measured_parameter="inhibition at 100 µM" observed_value=0%
compound="NS(=O)(=O)c1ccc(-c2cnn(-c3cccc(Cl)c3)c(=O)c2CCc2ccccc2)cc1 [Example 393]" measurement_target="recombinant human Cox-1 (r-hu Cox1) (Homo sapiens, UniProt P23219)" measured_parameter="inhibition at 100 µM" observed_value=15%
compound="CC(C)CCOc1c(-c2ccc(S(C)(=O)=O)cc2)cnn(-c2ccc(F)cc2)c1=O [Example 375]" measurement_target="recombinant human Cox-1 (r-hu Cox1) (Homo sapiens, UniProt P23219)" measured_parameter="inhibition at 100 µM" observed_value=46%
compound="NS(=O)(=O)c1ccc(-c2cnn(CC=C(F)F)c(=O)c2-c2ccc(F)cc2)cc1 [Example 143]" measurement_target="recombinant human Cox-1 (r-hu Cox1) (Homo sapiens, UniProt P23219)" measured_parameter="inhibition at 100 µM" observed_value=62%
compound="CS(=O)(=O)c1ccc(-c2cnn(-c3cccc(Cl)c3)c(=O)c2C2CCCCC2)cc1 [Example 368]" measurement_target="recombinant human Cox-1 (r-hu Cox1) (Homo sapiens, UniProt P23219)" measured_parameter="inhibition at 100 µM" observed_value=13%
compound="CC(C)(O)CCOc1c(-c2ccc(S(C)(=O)=O)cc2)cnn(-c2ccc(F)cc2)c1=O [Example 451]" measurement_target="recombinant human Cox-1 (r-hu Cox1) (Homo sapiens, UniProt P23219)" measured_parameter="inhibition at 100 µM" observed_value=10%
compound="NS(=O)(=O)c1ccc(-c2cnn(-c3ccc(F)c(F)c3)c(=O)c2Oc2ccc(F)cc2)cc1F [Example 407]" measurement_target="recombinant human Cox-1 (r-hu Cox1) (Homo sapiens, UniProt P23219)" measured_parameter="inhibition at 100 µM" observed_value=32%
compound="CC(C)=CCOc1c(-c2ccc(S(C)(=O)=O)cc2)cnn(-c2cccc(Cl)c2)c1=O [Example 423]" measurement_target="recombinant human Cox-1 (r-hu Cox1) (Homo sapiens, UniProt P23219)" measured_parameter="inhibition at 100 µM" observed_value=0%
compound="CS(=O)(=O)c1ccc(-c2cnn(CC(F)(F)F)c(=O)c2C2CCCCC2)cc1 [Example 240]" measurement_target="recombinant human Cox-1 (r-hu Cox1) (Homo sapiens, UniProt P23219)" measured_parameter="inhibition at 100 µM" observed_value=14%
compound="CS(=O)(=O)c1ccc(-c2cnn(CC(F)(F)F)c(=O)c2-c2ccc(Cl)c(Cl)c2)cc1 [Example 81]" measurement_target="recombinant human Cox-1 (r-hu Cox1) (Homo sapiens, UniProt P23219)" measured_parameter="inhibition at 100 µM" observed_value=6%
compound="CC(C)CCCOc1c(-c2ccc(S(C)(=O)=O)cc2)cnn(-c2ccc(F)cc2)c1=O [Example 414]" measurement_target="recombinant human Cox-1 (r-hu Cox1) (Homo sapiens, UniProt P23219)" measured_parameter="inhibition at 100 µM" observed_value=0%
compound="CS(=O)(=O)c1ccc(-c2cnn(-c3cccc(Cl)c3)c(=O)c2Cc2cccc(F)c2)cc1 [Example 241]" measurement_target="recombinant human Cox-1 (r-hu Cox1) (Homo sapiens, UniProt P23219)" measured_parameter="inhibition at 100 µM" observed_value=0%
compound="CC(C)CCOc1c(-c2ccc(S(N)(=O)=O)cc2)cnn(-c2cccc(Cl)c2)c1=O [Example 394]" measurement_target="recombinant human Cox-1 (r-hu Cox1) (Homo sapiens, UniProt P23219)" measured_parameter="inhibition at 100 µM" observed_value=86%
compound="Cc1ccc(-c2c(-c3ccc(S(N)(=O)=O)cc3)cnn(-c3ccc(F)c(F)c3)c2=O)cc1F [Example 386]" measurement_target="recombinant human Cox-1 (r-hu Cox1) (Homo sapiens, UniProt P23219)" measured_parameter="inhibition at 100 µM" observed_value=58%
compound="O=c1c(-c2ccc(F)cc2)c(-c2ccc(S(=O)(=O)C(F)(F)F)cc2)cnn1Cc1ccccc1 [Example 260]" measurement_target="recombinant human Cox-1 (r-hu Cox1) (Homo sapiens, UniProt P23219)" measured_parameter="inhibition at 100 µM" observed_value=8%
compound="CC(C)(C)COc1c(-c2ccc(S(N)(=O)=O)cc2)cnn(-c2ccc(F)c(F)c2)c1=O [Example 406]" measurement_target="recombinant human Cox-1 (r-hu Cox1) (Homo sapiens, UniProt P23219)" measured_parameter="inhibition at 100 µM" observed_value=23%
compound="CC(C)CCOc1c(-c2ccc(S(C)(=O)=O)cc2)cnn(CC(F)(F)F)c1=O [Example 447]" measurement_target="recombinant human Cox-1 (r-hu Cox1) (Homo sapiens, UniProt P23219)" measured_parameter="inhibition at 100 µM" observed_value=0%

---

Some compounds, each annotated with its measured inhibition at 0.1 µM.
molecular target: recombinant human Cox-2 (r-hu Cox-2) (Homo sapiens, UniProt P35354); construct: made in house; host or cells: baculovirus/Sf9 insect cells (microsomes); assay: Recombinant human PGHS-2 enzyme assay (RHUCX2); type: biochemical; settings: 0.1 μM; read-out: RHUCX2 % Inh. at Dose
Measured Parameter: inhibition at 0.1 µM (%)

compound=CS(=O)(=O)c1ccc(-c2cnn(-c3ccc(F)c(Cl)c3)c(=O)c2Cc2cccc(F)c2)cc1 measured_parameter="inhibition at 0.1 µM" measurement_unit=% observed_value=68
compound="CS(=O)(=O)c1ccc(-c2cnn(-c3ccc(F)c(F)c3)c(=O)c2OCCC2C=CCC2)cc1 (stereo not shown)" measured_parameter="inhibition at 0.1 µM" measurement_unit=% observed_value=59
compound=CS(=O)(=O)c1ccc(-c2cnn(-c3ccc(Cl)s3)c(=O)c2-c2ccc(Cl)cc2)cc1 measured_parameter="inhibition at 0.1 µM" measurement_unit=% observed_value=61
compound=CC(C)COc1c(-c2ccc(S(N)(=O)=O)cc2)cnn(-c2ccc(F)c(F)c2)c1=O measured_parameter="inhibition at 0.1 µM" measurement_unit=% observed_value=64
compound="CC(c1ccc(F)c(F)c1F)n1ncc(-c2ccc(S(N)(=O)=O)cc2)c(-c2ccc(F)cc2)c1=O (stereo not shown)" measured_parameter="inhibition at 0.1 µM" measurement_unit=% observed_value=73
compound=CC(C)(C)COc1c(-c2ccc(S(N)(=O)=O)cc2)cnn(-c2ccc(F)c(F)c2)c1=O measured_parameter="inhibition at 0.1 µM" measurement_unit=% observed_value=64
compound=CC(C)COc1c(-c2ccc(S(N)(=O)=O)cc2)cnn(-c2cccc(Cl)c2)c1=O measured_parameter="inhibition at 0.1 µM" measurement_unit=% observed_value=77

---

Some molecules, each annotated with its measured inhibition at 0.1 µM.
Target: recombinant human Cox-2 (r-hu Cox-2) (Homo sapiens, UniProt P35354)
Construct: made in house; host or cells: baculovirus/Sf9 insect cells (microsomes)
Test: Recombinant human PGHS-2 enzyme assay (RHUCX2)
Format: biochemical
Conditions: 0.1 μM; read-out: RHUCX2 % Inh. at Dose
Experimental: To compare the mean responses of the treatment groups, analysis of variance was applied. Percent inhibition values were determined by comparing the individual treatment mean values to the mean of the control group. […] EIA reagents for prostaglandin determination were purchased from Perseptive Diagnostics, (Cambridge, Mass.). Prostaglandin E2 (PGE2) levels in lavage fluids were determined after the samples were dried under nitrogen and reconstituted with assay buffer. […]
Measured Parameter: inhibition at 0.1 µM (%)

molecule=NS(=O)(=O)c1ccc(-c2cnn(-c3cccc(Cl)c3)c(=O)c2CCc2ccccc2)cc1 observed_value=58
molecule="CC(c1ccc(F)cc1)n1ncc(-c2ccc(S(C)(=O)=O)cc2)c(-c2ccc(F)cc2)c1=O (centres unmarked)" observed_value=59
molecule=C=C(C)CCOc1c(-c2ccc(S(C)(=O)=O)cc2)cnn(-c2ccc(F)cc2)c1=O observed_value=69
molecule=CC(C)CCCOc1c(-c2ccc(S(C)(=O)=O)cc2)cnn(-c2ccc(F)cc2)c1=O observed_value=76
molecule=CC(C)CCCc1c(-c2ccc(S(C)(=O)=O)cc2)cnn(-c2cccc(Cl)c2)c1=O observed_value=81
